Tested on: SR leukemia
method: NCI-60 one-dose screen, 48 h (100 = growth as untreated, 0 = no growth, -100 = all killed)
condition-details: 10 µM unless noted
This is part of a sample that, as a whole, favours compounds with a hit. Of some 83,000 tested, about 20% had one in any assay.
Dear colleague, classification is by growth, with ranges listed here: small value (below 10%), mid value (10% to below 60%), large value (60% or more)

These recorded examples may help you get a feel for the data.
[[record]]
compound = "NNc1ncnc2sc3c(c12)CCN(Cc1ccccc1)C3"
classification = "mid value"

[[record]]
compound = "O=c1c(-c2nc(-c3ccccc3)c(-c3ccccc3)[nH]2)coc2ccc(F)cc12"
classification = "large value"

[[record]]
compound = "CN1CCN(C(=O)Oc2cc3c(c4ccccc24)[C@H](CCl)CN3C(=O)c2cc3cc(OCCCN4CCC4)ccc3[nH]2)[C@H]2CSSC[C@H]21"
classification = "small value"

[[record]]
compound = "O=C(Nc1ccc(-c2ccc3c(c2)NC(=O)/C3=C\\c2ccc[nH]2)cc1)Nc1ccc(Cl)c(C(F)(F)F)c1"
classification = "small value"

[[record]]
compound = "COC(=O)c1cc(C(=O)CBr)n2c1ccc1c3ccccc3ccc12"
classification = "small value"

[[record]]
compound = "COc1ccc2[nH]c(O)c(N=Nc3nc(-c4ccc(C#N)cc4)cs3)c2c1"
classification = "mid value"

[[record]]
compound = "CCCCNc1ccc2c3c(cccc13)C(=O)N(c1cccc(-c3nn(-c4ccccc4)cc3-c3nc4ccccc4s3)c1)C2=O"
classification = "large value"

[[record]]
compound = "CS(=O)(=O)Nc1cccc(-n2cnc3cc(-c4ccc(O)cc4)ccc32)c1"
classification = "mid value"

[[record]]
compound = "CCOC(=O)/C(F)=C/C1CC1C1CCN(C(=O)OC(C)(C)C)CC1 (stereo unspecified)"
classification = "large value"

[[record]]
compound = "COC(=O)c1cc(C(=O)C(Br)Br)n2c1ccc1c3ccccc3ccc12"
classification = "mid value"


Continue with the compound presented below.
Query block: Just checking, what class would you give `COc1ccc(Nc2nnc(-c3c[nH]c4ccccc34)o2)cc1` here?
Result block: large value
